# Fold Shift of EC50 annotations
Target: PTHR1 receptor
Sequence (P25961 whole entry): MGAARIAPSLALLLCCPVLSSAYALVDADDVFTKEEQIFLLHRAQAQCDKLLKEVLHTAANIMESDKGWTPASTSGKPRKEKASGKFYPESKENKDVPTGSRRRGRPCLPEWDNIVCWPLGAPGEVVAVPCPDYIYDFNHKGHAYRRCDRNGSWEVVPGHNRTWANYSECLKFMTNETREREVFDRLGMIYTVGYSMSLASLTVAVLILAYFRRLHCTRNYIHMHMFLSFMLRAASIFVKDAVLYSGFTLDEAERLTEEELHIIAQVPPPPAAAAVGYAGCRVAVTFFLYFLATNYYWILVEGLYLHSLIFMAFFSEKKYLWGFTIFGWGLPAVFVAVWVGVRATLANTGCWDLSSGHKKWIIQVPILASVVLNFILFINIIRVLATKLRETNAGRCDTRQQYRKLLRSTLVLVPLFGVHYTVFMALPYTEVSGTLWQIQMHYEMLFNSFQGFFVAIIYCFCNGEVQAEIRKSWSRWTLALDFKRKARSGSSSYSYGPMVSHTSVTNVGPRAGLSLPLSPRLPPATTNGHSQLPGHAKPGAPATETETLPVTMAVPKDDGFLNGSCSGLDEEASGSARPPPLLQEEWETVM
* marks the point of attachment. Palmitoyl = CCCCCCCCCCCCCCCC(=O)*
Report the value in fold with no unit label.

Would you please look over these solved cases?
[
  {
    "Binder": "Palmitoyl-LAYFRRLHSTRNYI-NH2 (SMILES CCCCCCCCCCCCCCCC(=O)N[C@@H](CC(C)C)C(=O)N[C@@H](C)C(=O)N[C@@H](Cc1ccc(O)cc1)C(=O)N[C@@H](Cc1ccccc1)C(=O)N[C@@H](CCCNC(=N)N)C(=O)N[C@@H](CCCNC(=N)N)C(=O)N[C@@H](CC(C)C)C(=O)N[C@@H](Cc1c[nH]cn1)C(=O)N[C@@H](CO)C(=O)N[C@H](C(=O)N[C@@H](CCCNC(=N)N)C(=O)N[C@@H](CC(N)=O)C(=O)N[C@@H](Cc1ccc(O)cc1)C(=O)N[C@H](C(N)=O)[C@@H](C)CC)[C@@H](C)O) [Compound 9]",
    "Observed Measurement": 1.1
  },
  {
    "Binder": "Palmitoyl-SGRVLATKLR-NH2 (SMILES CCCCCCCCCCCCCCCC(=O)N[C@@H](CO)C(=O)NCC(=O)N[C@@H](CCCNC(=N)N)C(=O)N[C@H](C(=O)N[C@@H](CC(C)C)C(=O)N[C@@H](C)C(=O)N[C@H](C(=O)N[C@@H](CCCCN)C(=O)N[C@@H](CC(C)C)C(=O)N[C@@H](CCCNC(=N)N)C(N)=O)[C@@H](C)O)C(C)C) [Compound 71]",
    "Observed Measurement": 0.8
  },
  {
    "Binder": "Palmitoyl-KLRETNAGRSDTRQQY-NH2 (SMILES CCCCCCCCCCCCCCCC(=O)N[C@@H](CCCCN)C(=O)N[C@@H](CC(C)C)C(=O)N[C@@H](CCCNC(=N)N)C(=O)N[C@@H](CCC(=O)O)C(=O)N[C@H](C(=O)N[C@@H](CC(N)=O)C(=O)N[C@@H](C)C(=O)NCC(=O)N[C@@H](CCCNC(=N)N)C(=O)N[C@@H](CO)C(=O)N[C@@H](CC(=O)O)C(=O)N[C@H](C(=O)N[C@@H](CCCNC(=N)N)C(=O)N[C@@H](CCC(N)=O)C(=O)N[C@@H](CCC(N)=O)C(=O)N[C@@H](Cc1ccc(O)cc1)C(N)=O)[C@@H](C)O)[C@@H](C)O) [Compound 53]",
    "Observed Measurement": 2.1
  },
  {
    "Binder": "Palmitoyl-RETNAGRSDTRQQYRK-NH2 (SMILES CCCCCCCCCCCCCCCC(=O)N[C@@H](CCCNC(=N)N)C(=O)N[C@@H](CCC(=O)O)C(=O)N[C@H](C(=O)N[C@@H](CC(N)=O)C(=O)N[C@@H](C)C(=O)NCC(=O)N[C@@H](CCCNC(=N)N)C(=O)N[C@@H](CO)C(=O)N[C@@H](CC(=O)O)C(=O)N[C@H](C(=O)N[C@@H](CCCNC(=N)N)C(=O)N[C@@H](CCC(N)=O)C(=O)N[C@@H](CCC(N)=O)C(=O)N[C@@H](Cc1ccc(O)cc1)C(=O)N[C@@H](CCCNC(=N)N)C(=O)N[C@@H](CCCCN)C(N)=O)[C@@H](C)O)[C@@H](C)O) [Compound 60]",
    "Observed Measurement": 3.3
  },
  {
    "Binder": "Palmitoyl-GSEKKYLWGFT-NH2 (SMILES CCCCCCCCCCCCCCCC(=O)NCC(=O)N[C@@H](CO)C(=O)N[C@@H](CCC(=O)O)C(=O)N[C@@H](CCCCN)C(=O)N[C@@H](CCCCN)C(=O)N[C@@H](Cc1ccc(O)cc1)C(=O)N[C@@H](CC(C)C)C(=O)N[C@@H](Cc1c[nH]c2ccccc12)C(=O)NCC(=O)N[C@@H](Cc1ccccc1)C(=O)N[C@H](C(N)=O)[C@@H](C)O) [Compound 42]",
    "Observed Measurement": 1.3
  },
  {
    "Binder": "Palmitoyl-TNAGRSDTRQQYRKAL-NH2 (SMILES CCCCCCCCCCCCCCCC(=O)N[C@H](C(=O)N[C@@H](CC(N)=O)C(=O)N[C@@H](C)C(=O)NCC(=O)N[C@@H](CCCNC(=N)N)C(=O)N[C@@H](CO)C(=O)N[C@@H](CC(=O)O)C(=O)N[C@H](C(=O)N[C@@H](CCCNC(=N)N)C(=O)N[C@@H](CCC(N)=O)C(=O)N[C@@H](CCC(N)=O)C(=O)N[C@@H](Cc1ccc(O)cc1)C(=O)N[C@@H](CCCNC(=N)N)C(=O)N[C@@H](CCCCN)C(=O)N[C@@H](C)C(=O)N[C@@H](CC(C)C)C(N)=O)[C@@H](C)O)[C@@H](C)O) [Compound 89]",
    "Observed Measurement": 2.3
  }
]

Request: Quick check: Fold Shift of EC50 of Palmitoyl-GSEKKYLWG-NH2 (SMILES CCCCCCCCCCCCCCCC(=O)NCC(=O)N[C@@H](CO)C(=O)N[C@@H](CCC(=O)O)C(=O)N[C@@H](CCCCN)C(=O)N[C@@H](CCCCN)C(=O)N[C@@H](Cc1ccc(O)cc1)C(=O)N[C@@H](CC(C)C)C(=O)N[C@@H](Cc1c[nH]c2ccccc12)C(=O)NCC(N)=O) [Compound 43] ?
Response: 1.4

Request: Given the entry Palmitoyl-TNAGRSDARQQYRKLL-NH2 (SMILES CCCCCCCCCCCCCCCC(=O)N[C@H](C(=O)N[C@@H](CC(N)=O)C(=O)N[C@@H](C)C(=O)NCC(=O)N[C@@H](CCCNC(=N)N)C(=O)N[C@@H](CO)C(=O)N[C@@H](CC(=O)O)C(=O)N[C@@H](C)C(=O)N[C@@H](CCCNC(=N)N)C(=O)N[C@@H](CCC(N)=O)C(=O)N[C@@H](CCC(N)=O)C(=O)N[C@@H](Cc1ccc(O)cc1)C(=O)N[C@@H](CCCNC(=N)N)C(=O)N[C@@H](CCCCN)C(=O)N[C@@H](CC(C)C)C(=O)N[C@@H](CC(C)C)C(N)=O)[C@@H](C)O) [Compound 79] , report its measured Fold Shift of EC50.
Response: 7.2
